Dear all, I have gathered published log10 of IC50 values for Serine/threonine-protein kinase mTOR (Homo sapiens, UniProt P42345); the list follows.
Annotation: log10 of IC50, nM basis.

Past entries and their recorded results:
{"chemical-string": "Cc1cc(-c2ccc3nc(Nc4cc[nH]n4)c(-c4nc(C)nc(N)n4)n3c2)on1", "value-measured": 0.48}
{"chemical-string": "CS(=O)(=O)N1CCN(Cc2cc3nc(-c4ccc(NC(=O)Nc5cccnc5)cc4)nc(N4CC5CCC(C4)O5)c3s2)CC1", "value-measured": -0.22}
{"chemical-string": "COc1ccc(Nc2ncc(N3CCN(C)CC3)cc2-c2nc(C)nc(N)n2)cn1", "value-measured": 3.15}
{"chemical-string": "O=C(NCc1ccc(O)cc1)Nc1ccc(C(F)(F)F)cc1", "value-measured": 4.01}

May I ask what log10 of IC50 has been recorded for "COc1ccc2c(c1)c(/C=C1\Oc3cc(O)cc(O)c3C1=O)cn2CCCN1CCN(CCO)CC1" ?
3.22

Likewise for "O=C(Nc1ccc(-c2cc(N3CCOCC3)nc(N3CCOCC3)n2)cc1)Nc1ccc(Cl)c(-c2ccncc2)c1" ?
2.41

What do you have for "Nc1nc2cc(-c3nn(CCCC(=O)OCC#CCOc4no[n+]([O-])c4S(=O)(=O)c4ccccc4)c4ncnc(N)c34)ccc2o1" ?
0.56

* * *

Before we begin, note that these pIC50 values for Serine/threonine-protein kinase mTOR (Homo sapiens, UniProt P42345) originate from several publications.
Field pIC50 (float): negative decimal logarithm of the concentration in molar.

Some solved entries appear below for comparison.
{"chemical-string": "COc1ncc(-c2cnc3nc(N)nc(-c4ccncc4)c3c2)cc1NS(=O)(=O)c1ccc(F)cc1F", "pIC50": 7.74}
{"chemical-string": "COc1ccc2[nH]c(-c3c(C)nn(C)c3C)c(/C=C3/Oc4ccc(NC(=O)Nc5ccc(C(=O)N6CCN(C)CC6)cc5)cc4C3=O)c2c1", "pIC50": 8.42}
{"chemical-string": "Cc1nc(N)nc(-c2c(Nc3cc[nH]n3)nc3ccc(-c4ccncc4)cn23)n1", "pIC50": 8.22}

Consider the compound "COC[C@H]1OC(=O)/C(=C/N2CCCCC2)C2=C(O)C(=O)C3=C([C@H](OC(C)=O)C[C@]4(C)[C@@H](O)CC[C@@H]34)[C@]21C" and give its measured pIC50.
5.74

Next compound up: "Cc1nc(N)nc(-c2c(Nc3ccn[nH]3)nc3ccc(-c4cncn4C)cn23)n1"
8.30

* * *

Assay read-out IC50 on Serine/threonine-protein kinase mTOR (Homo sapiens); records merged from the literature.
# unit: nM | format: bare number

{"chemical-string": "CC(=O)Nc1cc(-c2c(Nc3cc[nH]n3)nc3ccccn23)nc(C)n1", "IC50 (nM)": 9}
{"chemical-string": "CN(C)C(=O)c1ccc(-c2ccnc3c2c(/C=C2\\Oc4cccc(O)c4C2=O)cn3C)cc1", "IC50 (nM)": 0.55}
{"chemical-string": "O=c1cc(N2CCOCC2)oc2c(-c3cccc4c3sc3ccccc34)cccc12", "IC50 (nM)": 1700}
{"chemical-string": "CCN(CC)CCN(C)/C=C1/C(=O)O[C@H](COC)[C@@]2(C)C1=C(O)C(=O)C1=C2[C@H](OC(C)=O)C[C@]2(C)[C@@H](O)CC[C@@H]12", "IC50 (nM)": 767}
{"chemical-string": "Cn1cc(/C=C2\\Oc3cccc(O)c3C2=O)c2c(-c3ccc(C(=O)N4CC5CCC(C4)O5)cc3)ccnc21", "IC50 (nM)": 0.56}

Field request: IC50 | item: "CC(=O)Nc1nc2ccc(-c3cnc(Cl)c(NS(=O)(=O)c4ccccc4F)c3)cc2s1"
1.1

Try "C[C@@H]1COCCN1c1nc(-c2cccc3[nH]ccc23)nc2c1CN(C(=O)c1cccc(S(C)(=O)=O)c1)C2(C)C" next.
18

Next: "COc1ccc(S(=O)(=O)Nc2nccc(-c3ccc4nc(NC(C)=O)sc4c3)n2)cc1"
57

Subsequent entry: "Nc1nc2cc(-c3nn(CCCC(=O)OCc4ccccc4OCc4c(-c5ccccc5)no[n+]4[O-])c4ncnc(N)c34)ccc2o1"
45.1

Further, for "O=C(NCCF)Nc1ccc(-c2nc(N3CC4CCC(C3)O4)c3cnn(C4CCC5(CC4)OCCO5)c3n2)cc1" ?
0.22

Also "Oc1cccc(-c2nc(N3CC4CCC(C3)O4)c3sccc3n2)c1" ?
58

* * *

This section presents log10 IC50 values reported for Serine/threonine-protein kinase mTOR (Homo sapiens) in the literature.
Hello, just confirming the data are log10 of IC50 with units of nM.

Answered cases to consult:
{"molecule": "NS(=O)(=O)c1cccc(Nc2nccc(-c3ccnc(N4CC5CCC(C4)O5)c3)n2)c1", "experimental-system": "Serine/threonine-protein kinase mTOR (Homo sapiens)", "log10 IC50": 2.30}
{"molecule": "CN(C)C1CCN(C(=O)C2CCN(c3ccnc4c3c(/C=C3\\Oc5ccc(NC(=O)Nc6cccnc6)cc5C3=O)cn4C)CC2)C1 (stereo not drawn)", "experimental-system": "Serine/threonine-protein kinase mTOR (Homo sapiens)", "log10 IC50": 1.04}
{"molecule": "COc1ccc(S(=O)(=O)Nc2cccc(-c3ccc4nc(NC(C)=O)sc4c3)c2)cc1", "experimental-system": "Serine/threonine-protein kinase mTOR (Homo sapiens)", "log10 IC50": 3.18}
{"molecule": "Cc1nc(N)cc2c1cc(-c1cnc3[nH]ccc3c1)c(=O)n2C1CCCC1", "experimental-system": "Serine/threonine-protein kinase mTOR (Homo sapiens)", "log10 IC50": 1.09}
{"molecule": "O=C1/C(=C/c2c(-c3ccccc3)[nH]c3ccccc23)Oc2cc(O)cc(O)c21", "experimental-system": "Serine/threonine-protein kinase mTOR (Homo sapiens)", "log10 IC50": 2.11}

Value lookup for log10 IC50; key = "Nc1nc2cc(-c3nn(CC4CCN(C(=O)c5ccc(C(=O)NO)s5)CC4)c4ncnc(N)c34)ccc2o1"
-0.40

Repeat for the following molecule: "CNC(=O)Nc1ccc(-c2nc(N3CC4CCC(C3)O4)c3sc(CN4CCN(C)CC4)cc3n2)cc1"
1.30

Repeat with "Cc1ccc(S(=O)(=O)N2CCN(c3nc(NCCN4CCOCC4)nc(N4CCOCC4)n3)CC2)cc1"
1.11

* * *

// molecules with reported IC50 on Serine/threonine-protein kinase mTOR (Homo sapiens, UniProt P42345), multi-publication
Write it as a number; the unit nM goes unstated.

{"chemical-string": "C/C(=N\\NC(=O)c1ccc(C)c(I)c1)c1ccc(C(F)(F)F)cc1", "IC50, nM": 1980}
{"chemical-string": "CCNC(=O)Nc1ccc(-c2nc(N3CCOCC3)nc(N3CCOCC3)n2)cc1", "IC50, nM": 10}
{"chemical-string": "CNC(=O)Nc1ccc(-c2nc(N3CC4CCC(C3)O4)c3cnn(C4CCN(C(=O)OC(C)C)CC4)c3n2)cc1", "IC50, nM": 0.19}
{"chemical-string": "C/C(=N\\NC(=O)c1cccc(I)c1)c1ccc(C(=O)O)cc1", "IC50, nM": 820}
{"chemical-string": "Nc1ncc(-c2cn3cc(C(=O)NC4CCOCC4)nc3c(N3CCOCC3)n2)cn1", "IC50, nM": 751}

Form field: reported IC50 of "NS(=O)(=O)c1cccc(Nc2nccc(-c3ccnc(NCCCO)c3)n2)c1"
320

Subsequent entry: "COC[C@H]1OC(=O)/C(=C/N2CCC(=O)CC2)C2=C(O)C(=O)C3=C([C@H](OC(C)=O)C[C@]4(C)[C@@H](O)CC[C@@H]34)[C@]21C"
960

// repeat for "COc1ncc(-c2cc3c(C)nc(N)cc3n(C3CCCC3)c2=O)cc1NS(=O)(=O)c1ccc(C(F)(F)F)cc1" and report
78.2

Similarly, "O=c1c(/C=N/Nc2nc(N3CCOCC3)c3ccsc3n2)coc2ccc([N+](=O)[O-])cc12" ?
920

* * *

Listing of pIC50 toward Serine/threonine-protein kinase mTOR (Homo sapiens, UniProt P42345), each taken from a published source.
Friendly reminder that pIC50 comes from taking -log10 of the concentration in mol/L.

{"chemical-string": "CN(C)CC(=O)N1CCC(n2cc(-c3cnc(N)c(-n4nnc5ccccc54)n3)cn2)CC1", "experimental-system": "Serine/threonine-protein kinase mTOR (Homo sapiens, UniProt P42345)", "reported-metric": "pIC50", "value-measured": 4.82}
{"chemical-string": "O=c1oc2ccccc2c2nn(CN3CCN(S(=O)(=O)c4ccc(C(F)(F)F)cc4)CC3)cc12", "experimental-system": "Serine/threonine-protein kinase mTOR (Homo sapiens, UniProt P42345)", "reported-metric": "pIC50", "value-measured": 5.09}
{"chemical-string": "Cc1nc(N)nc(-c2c(Nc3ccn[nH]3)nc3ccc(-c4cnn(C5CC5)c4)cn23)n1", "experimental-system": "Serine/threonine-protein kinase mTOR (Homo sapiens, UniProt P42345)", "reported-metric": "pIC50", "value-measured": 8.70}
{"chemical-string": "COc1ccc2cc1C(=O)NCC1=CC=C(S1)c1ncnc3c1SC(=C3)c1cnc(OC)c(c1)NS2(=O)=O", "experimental-system": "Serine/threonine-protein kinase mTOR (Homo sapiens, UniProt P42345)", "reported-metric": "pIC50", "value-measured": 5.25}
{"chemical-string": "Cc1cc(S(=O)(=O)Nc2ccc(/C=C3\\SC(=O)N(CC4(C)CCCCC4)C3=O)cc2)ccc1[N+](=O)[O-]", "experimental-system": "Serine/threonine-protein kinase mTOR (Homo sapiens, UniProt P42345)", "reported-metric": "pIC50", "value-measured": 5.08}

Endpoint output: pIC50 of "CC(=O)Nc1nc2ccc(-c3ccnc(N(C)S(=O)(=O)c4ccc(C)cc4)n3)cc2s1" . Value?
6.57

Try "CCCn1cnc2c(N3CCOC[C@@H]3C)cc(-c3ccc(NC(=O)NCC)cc3)nc21" next.
6.54

Same read-out for "Nc1nc2cc(-c3nn(Cc4ccc(C(=O)NO)cc4)c4ncnc(N)c34)ccc2o1" ?
7.74

Another molecule to look at: "COc1ncc(-c2cnc3nc(N)nc(C)c3c2)cc1NS(=O)(=O)c1ccc(C#N)cc1"
7.34

What about this molecule? "CCNC(=O)Nc1ccc(-c2cc(N3CCOC[C@@H]3C)c3nc(C)n(CC)c3n2)cc1"
6.48
